molecular target: Thioredoxin reductase 1, cytoplasmic (Homo sapiens, UniProt Q16881); test: Inhibition of TrxR in human SGC7901 cells
Sequence (Q16881 whole entry): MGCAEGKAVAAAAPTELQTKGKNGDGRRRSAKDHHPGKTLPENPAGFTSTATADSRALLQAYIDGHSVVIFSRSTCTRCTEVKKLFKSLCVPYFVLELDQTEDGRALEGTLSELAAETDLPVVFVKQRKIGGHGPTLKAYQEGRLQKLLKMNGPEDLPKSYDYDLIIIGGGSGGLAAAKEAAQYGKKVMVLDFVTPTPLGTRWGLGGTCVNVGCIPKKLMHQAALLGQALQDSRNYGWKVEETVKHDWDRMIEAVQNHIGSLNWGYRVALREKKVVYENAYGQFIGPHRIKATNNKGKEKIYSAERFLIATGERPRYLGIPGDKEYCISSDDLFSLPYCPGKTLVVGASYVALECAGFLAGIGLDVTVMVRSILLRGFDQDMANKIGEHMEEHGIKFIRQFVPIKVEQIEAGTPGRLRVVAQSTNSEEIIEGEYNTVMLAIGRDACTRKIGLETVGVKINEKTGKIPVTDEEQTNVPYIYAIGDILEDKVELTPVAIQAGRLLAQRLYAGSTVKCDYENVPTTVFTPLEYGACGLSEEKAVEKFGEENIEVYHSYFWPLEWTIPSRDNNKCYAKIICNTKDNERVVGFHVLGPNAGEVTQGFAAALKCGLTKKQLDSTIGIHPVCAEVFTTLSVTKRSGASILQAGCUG
Reported Metric: IC50 (nM)
Numbers only, in nM.

Query string: Recorded IC50 for COc1cc(OC)c2c(=O)c(OCCCOc3ccccc3/C=C/C(=O)/C=C/c3ccccn3)c(-c3cc(OC)c(OC)c(OC)c3)oc2c1 , please?
Result string: 783

====

test system: U-87 MG; assay: Antiproliferative activity against human U87 cells after 48 hrs by MTT assay; format: functional, cell-based, U-87MG ATCC
Reported Metric: pIC50
Give bare numbers, as −log10 of the molar value.

Some solved entries appear below for comparison.
Query string: # query: pIC50 | item O=C(/C=C/c1ccc(Oc2cc(=O)oc3ccccc23)cc1)/C=C/c1ccccn1 | system: U-87 MG
Result string: 4.29

Query string: # query: pIC50 | item COc1cc(OC)c2c(=O)c(OCCCCOc3ccc(/C=C/C(=O)/C=C/c4scnc4C)cc3)c(-c3cc(OC)c(OC)c(OC)c3)oc2c1 | system: U-87 MG
Result string: 4.23

Query string: # query: pIC50 | item COc1cc(OC)c2c(=O)c(OCCCCOc3ccccc3/C=C/C(=O)/C=C/c3cccc([N+](=O)[O-])c3)c(-c3cc(OC)c(OC)c(OC)c3)oc2c1 | system: U-87 MG
Result string: 5.00

Query string: # query: pIC50 | item O=C(/C=C/c1ccc(Oc2cc(=O)oc3ccccc23)cc1)/C=C/c1cccnc1 | system: U-87 MG
Result string: 4.43

Query string: # query: pIC50 | item COc1cc(OC)c2c(=O)c(OCCCOc3ccccc3/C=C/C(=O)/C=C/c3cccc([N+](=O)[O-])c3)c(-c3cc(OC)c(OC)c(OC)c3)oc2c1 | system: U-87 MG
Result string: 5.10

Could I get pIC50 for every one of these entries?
1. COc1cc(OC)c2c(=O)c(OCCCOc3ccccc3/C=C/C(=O)/C=C/c3scnc3C)c(-c3cc(OC)c(OC)c(OC)c3)oc2c1
2. COc1cc(OC)c2c(=O)c(OCCCCOc3ccccc3/C=C/C(=O)/C=C/c3ccco3)c(-c3cc(OC)c(OC)c(OC)c3)oc2c1

Result string:
1. 5.02
2. 4.97

====

tested on: U-87 MG; assay: Antiproliferative activity against human U87 cells after 48 hrs by MTT assay; format: functional, cell-based, U-87MG ATCC
We label by threshold. Values of IC50 strictly beneath 5 µM are met. Values of 5 µM and up are not met.

These recorded examples may help you get a feel for the data.
Query string: State whether 5 µM exceeds IC50 recorded for COc1cc(OC)c2c(=O)c(OCCCOc3ccccc3/C=C/C(=O)/C=C/c3ccccn3)c(-c3cc(OC)c(OC)c(OC)c3)oc2c1 .
Result string: met

Query string: State whether 5 µM exceeds IC50 recorded for COc1cc(OC)c2c(=O)c(OCCCOc3ccc(/C=C/C(=O)/C=C/c4scnc4C)cc3)c(-c3cc(OC)c(OC)c(OC)c3)oc2c1 .
Result string: not met

Query string: State whether 5 µM exceeds IC50 recorded for COc1cc(OC)c2c(=O)c(OCCCCOc3ccccc3/C=C/C(=O)/C=C/c3ccc(Cl)cc3)c(-c3cc(OC)c(OC)c(OC)c3)oc2c1 .
Result string: not met

Query string: State whether 5 µM exceeds IC50 recorded for COc1cc(OC)c2c(=O)c(OCCCCOc3ccc(/C=C/C(=O)/C=C/c4ccccn4)cc3)c(-c3cc(OC)c(OC)c(OC)c3)oc2c1 .
Result string: met

***
Query string: State whether 5 µM exceeds IC50 recorded for COc1cc(OC)c2c(=O)c(OCCCCOc3ccccc3/C=C/C(=O)/C=C/c3cccs3)c(-c3cc(OC)c(OC)c(OC)c3)oc2c1 .
Result string: not met

Query string: State whether 5 µM exceeds IC50 recorded for COc1cccc2c1C(=O)c1c(O)c3c(c(O)c1C2=O)C[C@@](O)(C(=O)CO)C[C@@H]3O[C@H]1C[C@H](N)[C@H](O)[C@H](C)O1 .
Result string: met

Source of measurements: ChEMBL document CHEMBL4270560
